# TESTED ON: human MET ECD mutant E (mutations 2, 3, 4) (human) (UniProt P08581)
# TEST METHOD NOTES: ELISA, MET ECD in solid phase, mAb 0-50 nM
As shown below, each of these binders has a reported % binding (EMAX) compared to WT MET value.
VALUE KIND: % binding (EMAX) compared to WT MET (% WT MET ECD)

[[record]]
binder = "71G2 chimeric llama-human IgG1 mAb (antibody, V domains shown, llama VH on human IgG1 CH1-CH2-CH3, llama VL on human lambda CL) VH: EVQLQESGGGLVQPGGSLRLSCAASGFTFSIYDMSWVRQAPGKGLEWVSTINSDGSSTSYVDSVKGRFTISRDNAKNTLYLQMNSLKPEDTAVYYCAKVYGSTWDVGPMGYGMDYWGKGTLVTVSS VL: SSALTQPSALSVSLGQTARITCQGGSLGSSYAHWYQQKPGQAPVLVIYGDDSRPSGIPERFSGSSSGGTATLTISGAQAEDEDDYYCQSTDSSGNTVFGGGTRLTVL"
value_kind = "% binding (EMAX) compared to WT MET"
value_measured = 41.4

[[record]]
binder = "71C3 chimeric llama-human IgG1 mAb (antibody, V domains shown, llama VH on human IgG1 CH1-CH2-CH3, llama VL on human lambda CL) VH: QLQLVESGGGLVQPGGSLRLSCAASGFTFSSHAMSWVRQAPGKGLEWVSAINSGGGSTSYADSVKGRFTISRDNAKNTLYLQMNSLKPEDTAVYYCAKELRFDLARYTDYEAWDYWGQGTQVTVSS VL: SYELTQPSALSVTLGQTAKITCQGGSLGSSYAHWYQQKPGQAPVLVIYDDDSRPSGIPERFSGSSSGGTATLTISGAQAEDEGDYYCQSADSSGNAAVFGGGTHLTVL"
value_kind = "% binding (EMAX) compared to WT MET"
value_measured = 59.6

[[record]]
binder = "71A3 chimeric llama-human IgG1 mAb (antibody, V domains shown, llama VH on human IgG1 CH1-CH2-CH3, llama VL on human lambda CL) VH: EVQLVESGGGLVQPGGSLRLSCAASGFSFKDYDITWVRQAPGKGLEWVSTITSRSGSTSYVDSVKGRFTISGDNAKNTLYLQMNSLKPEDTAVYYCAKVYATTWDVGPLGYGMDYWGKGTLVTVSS VL: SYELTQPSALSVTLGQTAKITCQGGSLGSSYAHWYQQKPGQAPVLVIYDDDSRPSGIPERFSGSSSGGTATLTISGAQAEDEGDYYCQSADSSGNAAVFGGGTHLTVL"
value_kind = "% binding (EMAX) compared to WT MET"
value_measured = 65.4

[[record]]
binder = "71D4 chimeric llama-human IgG1 mAb (antibody, V domains shown, llama VH on human IgG1 CH1-CH2-CH3, llama VL on human lambda CL) VH: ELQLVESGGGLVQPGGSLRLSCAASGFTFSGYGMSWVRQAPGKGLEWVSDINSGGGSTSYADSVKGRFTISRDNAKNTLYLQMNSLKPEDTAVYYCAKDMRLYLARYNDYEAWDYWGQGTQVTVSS VL: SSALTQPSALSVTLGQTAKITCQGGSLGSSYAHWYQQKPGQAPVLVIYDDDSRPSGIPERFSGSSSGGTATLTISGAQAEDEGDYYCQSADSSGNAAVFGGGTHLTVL"
value_kind = "% binding (EMAX) compared to WT MET"
value_measured = 57.2

